Molecular target: T1, CXCR3-B (alternatively spliced variant of CXCR3) (human, UniProt P49682-2 1-415)
T1 sequence (looked up): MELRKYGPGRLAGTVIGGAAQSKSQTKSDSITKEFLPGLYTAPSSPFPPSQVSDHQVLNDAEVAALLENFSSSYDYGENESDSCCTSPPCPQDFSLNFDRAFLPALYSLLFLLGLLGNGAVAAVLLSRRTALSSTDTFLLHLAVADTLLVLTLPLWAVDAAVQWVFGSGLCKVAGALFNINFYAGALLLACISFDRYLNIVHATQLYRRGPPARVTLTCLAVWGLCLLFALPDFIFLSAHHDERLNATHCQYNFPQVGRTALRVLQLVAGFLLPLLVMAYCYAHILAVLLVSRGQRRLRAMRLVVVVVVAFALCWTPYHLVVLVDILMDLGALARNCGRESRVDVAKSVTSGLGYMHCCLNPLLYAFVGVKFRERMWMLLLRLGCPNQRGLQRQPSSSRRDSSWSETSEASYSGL
Test: radioligand binding
Readout name: pIC50
Schema: pIC50 number; meaning minus log10 of the concentration expressed in molar units.

Q: What pIC50 value was documented for this binder, CXCL9/Mig (ligand, human, UniProt Q07325 23-125, looked up) TPVVRKGRCSCISTNQGTIHLQSLKDLKQFAPSPSCEKIEIIATLKNGVQTCLNPDSADVKELIKKWEKQVSQKKKQKNGKKHQKKKVLKVRKSQRSRQKKTT ?
A: 6.88

Q: What pIC50 value was documented for this binder, CXCL11/I-TAC (ligand, human, UniProt O14625 22-94, looked up) FPMFKRGRCLCIGPGVKAVKVADIEKASIMYPSNNCDKIEVIITLKENKGQRCLNPKSKQARLIIKKVERKNF ?
A: 7.49

Taken from paper PMC2193908.
